// recombinant barcode read abundance (log10) lookup, one value per entry
experiment: recombinant barcode read abundance after kanamycin selection (control-corrected) (log10(CPM+1)); higher = more efficient recombination; sequences stand for … in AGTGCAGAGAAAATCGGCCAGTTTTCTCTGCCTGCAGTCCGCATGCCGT…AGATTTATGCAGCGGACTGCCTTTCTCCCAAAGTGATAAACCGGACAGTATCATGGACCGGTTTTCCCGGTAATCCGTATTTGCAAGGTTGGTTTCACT; site = the 11-nt target;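 also: IS621 recombinase and bridge RNA in Escherichia coli cells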
Keep the answer to the number alone.

Here is how some sequences turned out for recombinant barcode read abundance (log10).
[
  {
    "monomer.sequence": "CACTTCCCTTGGGTTCTAACCTGTTGCGT (site CACTTCCCTAA)",
    "experimental.value": 0.0684
  },
  {
    "monomer.sequence": "GCTTGGCCTTGGGTTCTAACCTGTTGCCT (site GCTTGGCCTAG)",
    "experimental.value": 0.188
  },
  {
    "monomer.sequence": "ACGGAATCTTGGGTTCTAACCTGTTGCCG (site ACGGAATCTCG)",
    "experimental.value": 0.46
  },
  {
    "monomer.sequence": "TGGATTGCTTGGGTTCTAACCTGTTGCCT (site TGGATTCCTAG)",
    "experimental.value": 0.0162
  },
  {
    "monomer.sequence": "GTACAGACTTGGGTTCTAACCTGTTGCCT (site GTTCAGACTAG)",
    "experimental.value": 0.078
  },
  {
    "monomer.sequence": "CATCCCTCTTGGGTTCTAACCTGTTGCTT (site CATCCGTCTAA)",
    "experimental.value": 0.0576
  },
  {
    "monomer.sequence": "CTACAGACTTGGGTTCTAACCTGTTGCGC (site CTACAGACTAC)",
    "experimental.value": 0.253
  },
  {
    "monomer.sequence": "GCCTGCCCTTGGGTTCTAACCTGTTGCCT (site GCCTGCCCTAG)",
    "experimental.value": 0.892
  }
]

The value of recombinant barcode read abundance (log10) measured for the sequence CGTACCTCTTGGGTTCTAACCTGTTGCTC (site CGTACCTCTGA) turned out to be 0.171

The value of recombinant barcode read abundance (log10) measured for the sequence CTATGGACTTGGGTTCTAACCTGTTGCAT (site CTATGGACTAT) turned out to be 0.348

The value of recombinant barcode read abundance (log10) measured for the sequence AGGTTCCCTTGGGTTCTAACCTGTTGCTG (site AGGTTCCCTCA) turned out to be 2.46
